src = ChEMBL document CHEMBL1124270

Test system: Streptococcus pneumoniae
Experiment: In vivo potency against Streptococcus pneumoniae using mouse protection assay following p.o. administration.
Format: functional
Settings: po, read-out: PD50
MEASURED PROPERTY: ED50 (mg/kg)
Your answer is read as mg/kg, so omit the unit and give the number.

Reported ED50 for Streptococcus pneumoniae, given CC(C)NCC1CCN(c2c(F)cc3c(=O)c(C(=O)O)cn(C4CC4)c3c2F)C1 (stereo not given) ? 7

Identify the measured ED50 of NC1CCN(c2nc3c(cc2F)c(=O)c(C(=O)O)cn3C2CC2)C1 (stereo not given) for Streptococcus pneumoniae. 58

Entry CCNCC1CCN(c2nc3c(cc2F)c(=O)c(C(=O)O)cn3C2CC2)C1 (stereo not given) , system Streptococcus pneumoniae: what ED50 was measured? 16

# returns recorded ED50 (system: Streptococcus pneumoniae) for CN(C)CC1CCN(c2nc3c(cc2F)c(=O)c(C(=O)O)cn3C2CC2)C1 (stereo not given) 7

// map CNCC1CCN(c2nc3c(cc2F)c(=O)c(C(=O)O)cn3C2CC2)C1 (stereo not given) to recorded ED50 (system: Streptococcus pneumoniae) 27

---

Test system: Staphylococcus aureus
Assay: In vivo potency against Staphylococcus aureus using mouse protection assay following s.c. administration.
Assay type: functional
Settings: sc, read-out: PD50
Class definitions on ED50: class 1: < 5 mg/kg; class 2: ≥ 5 mg/kg and < 20 mg/kg; class 3: ≥ 20 mg/kg

State the class of the molecule shown: CN(C)CC1CCN(c2nc3c(cc2F)c(=O)c(C(=O)O)cn3C2CC2)C1 (stereo unspecified) class 3

Which of the defined bands does the recorded ED50 of CC(C)NCC1CCN(c2c(F)cc3c(=O)c(C(=O)O)cn(C4CC4)c3c2F)C1 (stereo unspecified) sit within? class 2

# bin label for CC(C)NCC1CCN(c2nc3c(cc2F)c(=O)c(C(=O)O)cn3C2CC2)C1 (stereo unspecified) class 2

Could you place CN(C)CC1CCN(c2cc3c(cc2F)c(=O)c(C(=O)O)cn3C2CC2)C1 (stereo unspecified) in its proper category? Many thanks. class 3

In plain terms, what class is CNCC1CCN(c2nc3c(cc2F)c(=O)c(C(=O)O)cn3C2CC2)C1 (stereo unspecified) ? class 1

Lab note: sort NC1CCN(c2nc3c(cc2F)c(=O)c(C(=O)O)cn3C2CC2)C1 (stereo unspecified) into the matching ED50 band. class 1

For the record O=C(O)c1cn(C2CC2)c2c(F)c(N3CCNCC3)c(F)cc2c1=O , report the class its ED50 corresponds to. class 1

Place this molecule in its band: CN(C)CC1CCN(c2c(F)cc3c(=O)c(C(=O)O)cn(C4CC4)c3c2Cl)C1 (stereo unspecified) class 3

Just checking, what class would you give CCNCC1CCN(c2nc3c(cc2F)c(=O)c(C(=O)O)cn3C2CC2)C1 (stereo unspecified) here? class 2

Band of CN(C)CC1CCN(c2c(F)cc3c(=O)c(C(=O)O)cn(C4CC4)c3c2N)C1.Cl (stereo unspecified) ? class 3

Which ED50 category applies to O=C(O)c1cn(C2CC2)c2nc(N3CCNCC3)c(F)cc2c1=O here? class 2

GET /class?item= Cl.NC1CCN(c2c(F)cc3c(=O)c(C(=O)O)cn(C4CC4)c3c2F)C1 (stereo unspecified) class 1

Which ED50 band matches CCNCC1CCN(c2c(F)cc3c(=O)c(C(=O)O)cn(C4CC4)c3c2F)C1 (stereo unspecified) ? class 3

---

Please provide measured MIC for the entries that follow.
System: Enterococcus faecalis
Test: Minimum inhibitory concentration against Streptococcus faecalis MGH-2 in vitro.
Assay type: functional

Value wanted: MIC (Enterococcus faecalis) of entry CCNCC1CCN(c2cc3c(cc2F)c(=O)c(C(=O)O)cn3C2CC2)C1.Cl (stereo not given) 0.2 µg/mL

Request: MIC, test system Enterococcus faecalis, entry CCNCC1CCN(c2c(F)cc3c(=O)c(C(=O)O)cn(C4CC4)c3c2[N+](=O)[O-])C1.Cl (stereo not given) 0.4 µg/mL

Enterococcus faecalis / MIC / CC(C)NCC1CCN(c2nc3c(cc2F)c(=O)c(C(=O)O)cn3C2CC2)C1 (stereo not given) : value? 0.2 µg/mL

// map Cl.Cl.NC1CCN(c2cc3c(cc2F)c(=O)c(C(=O)O)cn3C2CC2)C1 (stereo not given) to recorded MIC (system: Enterococcus faecalis) 0.1 µg/mL

Query for Enterococcus faecalis: what MIC does the record show for CC(C)NCC1CCN(c2c(F)cc3c(=O)c(C(=O)O)cn(C4CC4)c3c2F)C1 (stereo not given) ? 0.025 µg/mL

---

I'd appreciate it if you could supply MIC values for the items below.
Test system: Klebsiella pneumoniae
Assay: Minimum inhibitory concentration against Klebsiella pneumoniae MGH-2 in vitro.
Type: functional
Write the value in µg/mL as a bare number.

Entry CC(C)NCC1CCN(c2c(F)cc3c(=O)c(C(=O)O)cn(C4CC4)c3c2F)C1 (centres undefined) : reported MIC = ? 0.2

I would be grateful if you could share the reported MIC for CCNCC1CCN(c2c(F)cc3c(=O)c(C(=O)O)cn(C4CC4)c3c2[N+](=O)[O-])C1.Cl (centres undefined) . 0.8

Recorded MIC of CCNCC1CCN(c2c(F)cc3c(=O)c(C(=O)O)cn(C4CC4)c3c2N)C1.Cl.Cl (centres undefined) , please. 0.8

Entry under review: Cl.O=C(O)c1cn(C2CC2)c2c([N+](=O)[O-])c(N3CCNCC3)c(F)cc2c1=O . Reported MIC? 0.8

Returns the measured MIC for the input molecule. Input: CN(C)CC1CCN(c2c(F)cc3c(=O)c(C(=O)O)cn(C4CC4)c3c2F)C1 (centres undefined) 0.2

What value of MIC has been reported for the following molecule? CCNCC1CCN(c2c(F)cc3c(=O)c(C(=O)O)cn4c3c2OCC4C)C1 (centres undefined) 0.4

I'd like to know its MIC. The molecule in question is CN(C)CC1CCN(c2c(F)cc3c(=O)c(C(=O)O)cn(C4CC4)c3c2Cl)C1 (centres undefined) 0.1

Return reported MIC; argument: CCNCC1CCN(c2c(F)cc3c(=O)c(C(=O)O)cn(C4CC4)c3c2Cl)C1 (centres undefined) 0.1

Could you tell me which MIC is on file for CNCC1CCN(c2cc3c(cc2F)c(=O)c(C(=O)O)cn3C2CC2)C1 (centres undefined) ? 0.2

---

Tested on: Klebsiella pneumoniae
Assay: Minimum inhibitory concentration against Klebsiella pneumoniae MGH-2 in vitro.
Assay type: functional
MEASURED PROPERTY: log10 of MIC (log10 of the value in µg/mL)
Kindly note that the scale is log10 and the underlying MIC is in µg/mL.

For the record Cl.Nc1c(N2CCC(N)C2)c(F)cc2c(=O)c(C(=O)O)cn(C3CC3)c12 (stereo not given) , what value of log10 of MIC is listed for Klebsiella pneumoniae? -0.40

Checklist item: log10 of MIC tested on Klebsiella pneumoniae, entry Cl.NC1CCN(c2c(F)cc3c(=O)c(C(=O)O)cn(C4CC4)c3c2Cl)C1 (stereo not given) [CLINAFLOXACIN HYDROCHLORIDE] , value? -1.60

Hello, I am looking for reported log10 of MIC with Klebsiella pneumoniae for Cl.Cl.NC1CCN(c2cc3c(cc2F)c(=O)c(C(=O)O)cn3C2CC2)C1 (stereo not given) . Could you help? -1.00

Record lookup: for Klebsiella pneumoniae, what log10 of MIC belongs to O=C(O)c1cn(C2CC2)c2c(F)c(N3CCNCC3)c(F)cc2c1=O ? -1.00

Klebsiella pneumoniae / log10 of MIC / CNCC1CCN(c2c(F)cc3c(=O)c(C(=O)O)cn(C4CC4)c3c2F)C1 (stereo not given) : value? -1.30

Form: Entry = NCC1CCN(c2nc3c(cc2F)c(=O)c(C(=O)O)cn3C2CC2)C1 (stereo not given) | System = Klebsiella pneumoniae | log10 of MIC = ____ -1.00

Give log10 of MIC (Klebsiella pneumoniae) of the following compound: Nc1c(N2CCNCC2)c(F)cc2c(=O)c(C(=O)O)cn(C3CC3)c12 -0.10

Lab note: need log10 of MIC with Klebsiella pneumoniae for entry NC1CCN(c2nc3c(cc2F)c(=O)c(C(=O)O)cn3C2CC2)C1 (stereo not given) , please look it up. -1.60

Please tell me: log10 of MIC of Cl.NC1CCN(c2c(F)cc3c(=O)c(C(=O)O)cn(C4CC4)c3c2F)C1 (stereo not given) , system Klebsiella pneumoniae? -1.60

Query log10 of MIC on Klebsiella pneumoniae for CC(C)NCC1CCN(c2cc3c(cc2F)c(=O)c(C(=O)O)cn3C2CC2)C1.Cl (stereo not given) -0.70

---

So I've got a bunch of compounds here, and I need their log10(ED50) values.
Test system: Mus musculus
Assay: In vivo potency against Escherichia coli vogel using mouse protection assay when given subcutaneously
Type: functional
Conditions: sc, read-out: PD50
The base-10 logarithm of ED50, taken with ED50 in mg/kg, is what appears here.

Entry Cl.Cl.NC1CCN(c2cc3c(cc2F)c(=O)c(C(=O)O)cn3C2CC2)C1 (configuration not stated) has what log10(ED50)? -0.30

Param item = CC(C)NCC1CCN(c2cc3c(cc2F)c(=O)c(C(=O)O)cn3C2CC2)C1.Cl (configuration not stated) ; retrieve measured log10(ED50). 0.60

Quick one: log10(ED50) of CN(C)CC1CCN(c2c(F)cc3c(=O)c(C(=O)O)cn(C4CC4)c3c2F)C1 (configuration not stated) ? 0.00

What value of log10(ED50) has been reported for the following compound? CN(C)CC1CCN(c2c(F)cc3c(=O)c(C(=O)O)cn(C4CC4)c3c2Cl)C1 (configuration not stated) 0.30

// lookup log10(ED50) for O=C(O)c1cn(C2CC2)c2cc(N3CCNCC3)c(F)cc2c1=O -0.52

Can you share its log10(ED50)? I mean this compound: CC1COc2c(N3CCC(N)C3)c(F)cc3c(=O)c(C(=O)O)cn1c23.Cl (configuration not stated) 0.30

# log10(ED50) lookup, item NC1CCN(c2nc3c(cc2F)c(=O)c(C(=O)O)cn3C2CC2)C1 (configuration not stated) -0.22
